I'd appreciate it if you could supply EC50 values for the items below.
# System: SARS-CoV-2
# assaySummary: Inhibitory activity of cytopathic effect (CPE) in HEK293T/ACE2-TMPRSS2 cells
# Type: cell-based
# runConditions: Severe acute respiratory syndrome coronavirus 2, HEK-293T, 72 h, read-out: EC50 (50% SARS-CoV-2 infected cell death inhibitory concentration)

Supply measured EC50 of COc1nc(N2[C@@H]3CC[C@H]2CNC3)cc2c1c(=O)n(-c1cnc3cc(F)ccn13)c(=O)n2-c1ccc(F)c(Cl)c1 [Compound I-0729] in your reply. < 100 nM

Supply measured EC50 of COc1nc(N2[C@H]3CC[C@@H]2[C@@H](O)C3)cc2c1c(=O)n(Cc1ncn(C)n1)c(=O)n2Cc1cc(F)c(F)c(F)c1 [Compound I-0602] in your reply. < 100 nM

Supply measured EC50 of O=c1c2cnc(N3[C@@H]4CC[C@H]3CNC4)cc2n(Cc2cc(F)c(F)c(Cl)c2)c(=O)n1-c1cnc2ccccn12 [Compound I-0547] in your reply. < 100 nM

* * *

# system: SARS-CoV-2 3CL protease (Severe acute respiratory syndrome coronavirus 2)
# assaySummary: Inhibitory activity test against SARS-CoV-2 3CL proteases
# Format: biochemical
# runConditions: read-out: IC50 (50% SARS-CoV-2 3CL protease inhibitory concentration)
readoutLabel: IC50

Supply measured IC50 of C=Cc1cc2c(c(OC)n1)c(=O)n(-c1cnc3cc(F)ccn13)c(=O)n2-c1ccc(F)c(Cl)c1 in your reply. < 100 nM

Supply measured IC50 of Cn1cnc(Cn2c(=O)c3c(Cl)cc(-c4cc(C#N)ccc4Cl)cc3n(Cc3cc(F)c(F)c(Cl)c3)c2=O)n1 in your reply. < 100 nM

Supply measured IC50 of COc1nc(N2CC[C@@H](C(=O)N3CCOCC3)C2)cc2c1c(=O)n(-c1cnc3cc(F)ccn13)c(=O)n2-c1ccc(F)c(Cl)c1 in your reply. < 100 nM

Supply measured IC50 of CCNC(=O)[C@@H]1CCN(c2cc3c(c(OC)n2)c(=O)n(-c2cnc4cc(F)ccn24)c(=O)n3-c2ccc(F)c(Cl)c2)C1 in your reply. 14 nM

Supply measured IC50 of Cn1c(-c2cc(C#N)ccc2Cl)cc2c(c1=O)c(=O)n(-c1cnc3cc(F)ccn13)c(=O)n2Cc1cc(F)c(F)c(F)c1 in your reply. 1.1 nM

Supply measured IC50 of [2H]C1([2H])N(c2cc3c(c(OC)n2)c(=O)n(Cc2ncn(C)n2)c(=O)n3Cc2cc(F)c(F)c(F)c2)C([2H])([2H])C([2H])([2H])C1([2H])[2H] in your reply. < 100 nM

Supply measured IC50 of Cn1cnc(Cn2c(=O)c3c(Cl)cc(-c4cc5c(cc4Cl)NC(=O)C5)cc3n(Cc3cc(F)c(F)c(Cl)c3)c2=O)n1 in your reply. 3.2 nM

Supply measured IC50 of COc1cc(-c2cc(NS(C)(=O)=O)ccc2Cl)cc2c1c(=O)n(-c1cncc(C)c1)c(=O)n2Cc1ccc(F)c(C#N)c1 in your reply. 10 nM

Supply measured IC50 of Cn1cnc(Cn2c(=O)c3c(=O)[nH]c(-c4cc(C#N)ccc4Cl)cc3n(Cc3cc(F)c(F)c(Cl)c3)c2=O)n1 in your reply. < 100 nM

Supply measured IC50 of Cn1cnc(Cn2c(=O)c3c(Cl)cc(-c4cc5c(cc4Cl)NC(=O)C5)cc3n(Cc3cc(Cl)c(F)cn3)c2=O)n1 in your reply. < 100 nM

Supply measured IC50 of COc1nc(N2CCC(S(C)(=O)=O)C2)cc2c1c(=O)n(-c1cncc(Cl)c1)c(=O)n2-c1ccc(F)c(Cl)c1 (stereo not shown) in your reply. < 100 nM

Supply measured IC50 of C=Cc1cc2c(c(OC)n1)c(=O)n(-c1cnc3cc(F)ccn13)c(=O)n2-c1ccc(F)c(F)c1 in your reply. < 100 nM

Supply measured IC50 of COc1cc(-c2cc(C#N)ccc2Cl)cc2c1c(=O)n(Cc1ncn(C)n1)c(=O)n2Cc1cc(Cl)c(F)cc1F in your reply. < 100 nM

Supply measured IC50 of COc1cc(-c2c(Cl)ccc3c2CNC3=O)cc2c1c(=O)n(Cc1ncn(C)n1)c(=O)n2Cc1cc(F)c(F)c(F)c1 in your reply. 24 nM

Supply measured IC50 of COc1nc(N2CCC(O)(C(F)F)C2)cc2c1c(=O)n(-c1cnc3cc(F)ccn13)c(=O)n2-c1ccc(F)c(Cl)c1 (stereo not shown) in your reply. < 100 nM

Supply measured IC50 of CC(=O)c1ccc(Cl)c(-c2ccc3c(=O)n(Cc4ccc[nH]c4=O)c(=O)n(Cc4cc(F)c(F)c(F)c4)c3c2)c1 in your reply. < 100 nM

Supply measured IC50 of COc1nc(N2CC[C@@H](OC(F)F)C2)cc2c1c(=O)n(-c1cnc3cc(F)ccn13)c(=O)n2-c1ccc(F)c(F)c1 in your reply. < 100 nM

Supply measured IC50 of Cn1cnc(Cn2c(=O)c3c(=O)n(C)c(-c4cc(C#N)ccc4Cl)cc3n(Cc3cc(F)c(F)c(Cl)c3)c2=O)n1 in your reply. 0.8 nM

Supply measured IC50 of COc1nc(N2CCC(C#N)C2)cc2c1c(=O)n(Cc1ncn(C)n1)c(=O)n2Cc1cc(F)c(F)c(F)c1 (stereo not shown) in your reply. < 100 nM

Supply measured IC50 of COc1nc(N2CC[C@@H](OC)C2)cc2c1c(=O)n(-c1cnc3cc(F)ccn13)c(=O)n2Cc1cc(F)c(F)c(F)c1 in your reply. < 100 nM

Supply measured IC50 of CCN(CC)c1cc2c(c(OC)n1)c(=O)n(-c1cnc3cc(F)ccn13)c(=O)n2-c1ccc(F)c(Cl)c1 in your reply. < 100 nM

Supply measured IC50 of COc1ccc(Cl)c(-c2cc(OC)c3c(=O)n(Cc4ncn(C)n4)c(=O)n(Cc4cc(F)c(F)c(F)c4)c3c2)n1 in your reply. < 100 nM

Supply measured IC50 of [2H]C([2H])([2H])O[C@@H]1CCN(c2cc3c(c(OC)n2)c(=O)n(-c2cnc4cc(F)ccn24)c(=O)n3-c2ccc(F)c(F)c2)C1 in your reply. 8.9 nM

Supply measured IC50 of COc1nc(C2CCOCC2)cc2c1c(=O)n(-c1cnc3cc(F)ccn13)c(=O)n2-c1ccc(F)c(Cl)c1 in your reply. 12 nM

Supply measured IC50 of O=c1[nH]cccc1Cn1c(=O)c2ccc(N3C[C@@H]4CN[C@@H](C4)C3)cc2n(Cc2cc(F)c(F)c(F)c2)c1=O in your reply. < 100 nM

* * *

# system: SARS-CoV-2 3CL protease (Severe acute respiratory syndrome coronavirus 2, UniProt P0DTD1)
# assaySummary: Inhibitory activity test against SARS-CoV-2 3CL proteases
# Assay type: biochemical
# runConditions: read-out: IC50 (50% SARS-CoV-2 3CL protease inhibitory concentration)
pIC50: −log10 of the molar value.
readoutLabel: pIC50

Supply measured pIC50 of COc1cc(-c2nc3[nH]c(=O)[nH]c3cc2Cl)cc2c1c(=O)n(Cc1ncn(C)n1)c(=O)n2Cc1cc(F)c(F)c(F)c1 [Compound I-0001] in your reply. 8.28

Supply measured pIC50 of COc1nc(N2CC[C@@H](O)C2)cc2c1c(=O)n(-c1cncc(C#N)c1)c(=O)n2-c1ccc(F)c(Cl)c1 [Compound I-0957] in your reply. 8.49

Supply measured pIC50 of Cn1cnc(Cn2c(=O)c3c(F)cc(-c4cc5cn[nH]c5cc4Cl)c(F)c3n(Cc3cc(F)c(F)c(F)c3)c2=O)n1 [Compound I-0006] in your reply. > 7.00

Supply measured pIC50 of COc1nc(N(C)CC(F)(F)F)cc2c1c(=O)n(-c1cnc3cc(F)ccn13)c(=O)n2-c1ccc(F)c(Cl)c1 [Compound I-1006] in your reply. > 7.00

Supply measured pIC50 of COc1cc(-c2ncc(N)cc2Cl)cc2c1c(=O)n(Cc1ncn(C)n1)c(=O)n2Cc1cc(F)c(F)c(F)c1 [Compound I-0834] in your reply. > 7.00

Supply measured pIC50 of COc1nc(N2CCC(O)(C(F)(F)F)C2)cc2c1c(=O)n(-c1cncc(Cl)c1)c(=O)n2-c1ccc(F)c(Cl)c1 (stereo not shown) [Compound I-1064] in your reply. > 7.00

Supply measured pIC50 of COc1nc(N2CC[C@@H](C#N)C2)cc2c1c(=O)n(-c1cncc(OCF)c1)c(=O)n2-c1ccc(F)c(F)c1 [Compound I-0980] in your reply. > 7.00

Supply measured pIC50 of COc1cc(-c2cc3c(cc2Cl)NC(=O)C3)cc2c1c(=O)n(-c1cncc(C)c1)c(=O)n2Cc1cc(F)c(F)c(F)c1 [Compound I-0058] in your reply. 8.82

Supply measured pIC50 of Cc1c(-c2cc(C#N)ccc2Cl)cc2c(c1F)c(=O)n(Cc1ncn(C)n1)c(=O)n2Cc1cc(F)c(F)c(Cl)c1 [Compound I-0637] in your reply. > 7.00

Supply measured pIC50 of CNC(=O)c1nc(-c2cc3c(nc2OC)c(=O)n(Cc2ncn(C)n2)c(=O)n3Cc2cc(F)c(F)c(Cl)c2)c(Cl)cc1F [Compound I-0881] in your reply. > 7.00

Supply measured pIC50 of COc1nc(N2CC[C@@H](C(N)=O)C2)cc2c1c(=O)n(Cc1ncn(C)n1)c(=O)n2Cc1cc(F)c(F)c(Cl)c1 [Compound I-0445] in your reply. 7.66

Supply measured pIC50 of COc1cc(-c2cc(C#N)ccc2Cl)cc2c1c(=O)n(-c1cncc(C)c1)c(=O)n2Cc1cc(C#N)ccc1Cl [Compound I-0168] in your reply. > 7.00

Supply measured pIC50 of COc1nc(N2CCC(C)(O)C2)cc2c1c(=O)n(-c1cnc3cc(F)ccn13)c(=O)n2-c1ccc(F)c(Cl)c1 (stereo not shown) [Compound I-1043] in your reply. > 7.00
